Test Details: thallium flux activation in parental CHO cells, counter-screen for KCNQ1 potentiator project (AID 493006);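 as to activation: fluorescence ratio of max minus min over baseline after K+ and Tl+ depolarization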
Condition Context: parental CHO-K1 cells, FluxOR thallium flux, at 10 µM
The source made the active and inactive calls.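 The calls were made as follows: active = duplicate-averaged activation above buffer control mean plus 5 SD of those controls; inactive = the rest.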
Answer with one of the outcomes given here: TRUE = active, FALSE = inactive

Cc1c(-c2nc(-c3ccncc3)no2)cccc1[N+](=O)[O-]    FALSE
O=C(NC(=S)NC1CCCc2ccccc21)c1ccc(F)cc1 (stereo unspecified)    FALSE
CCc1ccc2oc(C(=O)NC3CCS(=O)(=O)C3)cc(=O)c2c1 (stereo unspecified)    FALSE

Q: Recorded test outcome, item CC(CCc1ccccc1)NC(=O)c1ccccc1C(=O)O (stereo unspecified)
A: FALSE

Q: Recorded call for `Cc1ccc(-c2csc(NC(=S)NC(=O)c3ccco3)n2)cc1` ?
A: TRUE

Q: # outcome recorded in this test, key = `O=C(NC(=S)Nc1ccccc1N1CCCC1)c1ccc(-c2cccc([N+](=O)[O-])c2)o1`
A: FALSE

All figures here come from PubChem BioAssay.
